# TARGET_OF_ASSAY: μ2 KRR>E Core (Rattus norvegicus (alpha2, mu2), Homo …)
# Sequence (chain, as listed by the source, chain 1 of 4): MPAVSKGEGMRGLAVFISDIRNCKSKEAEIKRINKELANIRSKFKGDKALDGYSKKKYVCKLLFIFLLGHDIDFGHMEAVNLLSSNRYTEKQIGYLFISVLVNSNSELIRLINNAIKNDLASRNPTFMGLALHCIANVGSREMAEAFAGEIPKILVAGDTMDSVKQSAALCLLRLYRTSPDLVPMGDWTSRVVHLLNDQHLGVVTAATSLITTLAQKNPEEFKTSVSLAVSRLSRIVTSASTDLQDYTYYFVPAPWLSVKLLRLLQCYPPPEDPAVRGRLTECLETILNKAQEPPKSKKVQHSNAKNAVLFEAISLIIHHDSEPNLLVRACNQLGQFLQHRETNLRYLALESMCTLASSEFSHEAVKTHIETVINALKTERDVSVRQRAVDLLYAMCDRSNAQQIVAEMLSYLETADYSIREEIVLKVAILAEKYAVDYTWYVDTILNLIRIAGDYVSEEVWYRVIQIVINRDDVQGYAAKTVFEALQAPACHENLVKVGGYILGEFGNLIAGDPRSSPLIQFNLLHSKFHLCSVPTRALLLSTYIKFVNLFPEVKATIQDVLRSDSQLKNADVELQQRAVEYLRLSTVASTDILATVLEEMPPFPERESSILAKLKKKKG
# Sequence (chain, as listed by the source, chain 2 of 4): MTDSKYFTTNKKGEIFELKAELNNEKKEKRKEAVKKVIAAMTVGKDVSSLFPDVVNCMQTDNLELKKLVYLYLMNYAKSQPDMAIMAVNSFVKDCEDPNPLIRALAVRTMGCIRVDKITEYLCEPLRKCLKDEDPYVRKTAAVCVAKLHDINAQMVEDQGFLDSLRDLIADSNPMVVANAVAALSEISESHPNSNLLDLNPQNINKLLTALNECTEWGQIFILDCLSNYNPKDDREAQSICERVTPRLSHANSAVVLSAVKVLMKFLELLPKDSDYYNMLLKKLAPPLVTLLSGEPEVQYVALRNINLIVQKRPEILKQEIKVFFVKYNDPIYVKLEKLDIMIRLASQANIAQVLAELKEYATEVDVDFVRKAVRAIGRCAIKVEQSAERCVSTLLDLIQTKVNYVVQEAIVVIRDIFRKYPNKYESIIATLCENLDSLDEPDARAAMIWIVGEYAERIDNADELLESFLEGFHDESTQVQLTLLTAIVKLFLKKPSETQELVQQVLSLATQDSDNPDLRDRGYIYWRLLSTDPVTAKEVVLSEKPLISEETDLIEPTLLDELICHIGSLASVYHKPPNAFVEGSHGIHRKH
# Sequence (chain, as listed by the source, chain 3 of 4): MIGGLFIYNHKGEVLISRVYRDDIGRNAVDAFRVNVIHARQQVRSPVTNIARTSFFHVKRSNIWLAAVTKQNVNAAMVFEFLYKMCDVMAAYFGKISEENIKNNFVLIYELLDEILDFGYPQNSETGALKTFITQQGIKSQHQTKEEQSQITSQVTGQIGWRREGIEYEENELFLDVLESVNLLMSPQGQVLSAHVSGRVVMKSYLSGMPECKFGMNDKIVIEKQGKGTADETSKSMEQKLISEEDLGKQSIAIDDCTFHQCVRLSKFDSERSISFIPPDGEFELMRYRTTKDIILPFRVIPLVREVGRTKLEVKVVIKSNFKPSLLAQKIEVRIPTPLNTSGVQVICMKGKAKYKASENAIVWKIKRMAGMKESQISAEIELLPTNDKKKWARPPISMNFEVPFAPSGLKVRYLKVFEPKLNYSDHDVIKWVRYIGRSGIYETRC
# Sequence (chain, as listed by the source, chain 4 of 4): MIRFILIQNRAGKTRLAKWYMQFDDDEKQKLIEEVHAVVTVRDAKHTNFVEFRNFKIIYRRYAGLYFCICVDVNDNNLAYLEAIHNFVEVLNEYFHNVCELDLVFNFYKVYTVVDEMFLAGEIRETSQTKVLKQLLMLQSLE
# ASSAY_OVERVIEW: SPR; liposomes with 10% PtdIns4,5P2 + 1% TGN38
Where no end group is shown, it is not given here. The star is where a group is joined. MPB‑DPPE = 1,2-dipalmitoyl-sn-glycero-3-phosphoethanolamine-N-[4-(p-maleimidophenyl)butyramide], CCCCCCCCCCCCCCCC(=O)OC[C@H](COP(=O)(O)OCCNC(=O)CCCc1ccc(N2C(=O)CC(*)C2=O)cc1)OC(=O)CCCCCCCCCCCCCCC
OUTCOME_MEASURE: Kd (nM)

binder="C(MPB‑DPPE)KVTRRPKASDYQRL [lipid-linked TGN38 sorting motif peptide (CKVTRRPKASDYQRL) displayed in liposomes]" measured_number=330
